Listing of entries alongside the reported TGI.
Test system: IGROV1 ovarian
experiment summary: NCI tumour cell line growth inhibition, 48 h

Examples with their reported TGI follow.
compound	system under test	measured property	result
CC(=O)C1C(c2ccccc2)C2(C)OC(=O)C(C#N)C12C (stereo not drawn)	IGROV1 ovarian	TGI	> 100 µM
COCCOC(=O)C1=C(O)c2ccccc2S(=O)(=O)N1C	IGROV1 ovarian	TGI	> 100 µM

Supply measured TGI of O=C(c1ccccc1)c1ccc2n[se]nc2c1 in your reply.
> 100 µM

###

System: MDA-MB-231 breast
experiment summary: NCI tumour cell line growth inhibition, 48 h
measured property: TGI

Some entries whose results are on file:
molecule	TGI
O=C1NC(=S)S/C1=C/c1ccc2c(c1)OCO2	> 100 µM
COc1ccc(Cn2c(=O)c(OC)c(C)c3cc4ccccc4cc32)cc1	> 100 µM
Cc1c(-c2ccccc2)cc(O)c2nc3ccccc3n12	> 100 µM
O=c1[nH]c2cc(C(F)(F)F)ccc2nc1C(F)(F)F	> 100 µM
C=C(CCOC)CCC1CCCCC(CN(C)C)C1=O (configuration not stated)	> 100 µM
CC(C)C(O)(C(C)C)C(C)C	> 100 µM
CC(C)(C)c1cc([N+](=O)[O-])cc([N+](=O)[O-])c1O	> 10 µM
CC12C=CC(C)(C3C(=O)C4C(C(=O)C31)C1(C)C=CC4(C)S1=O)S2=O (configuration not stated)	> 100 µM
O=C(O)c1ccc(CN2CCC(CN[C@@H]3C[C@H]3c3ccccc3)CC2)cc1	> 100 µM
O=NNc1ccc2ccccc2n1	> 100 µM

Annotate the molecule CS(=O)(=O)C(C#N)c1nc2ccccc2nc1Cl (configuration not stated) with its measured TGI.
> 100 µM

Query TGI for COC(=O)[C@@H]1C[C@H]2OC(=O)CC[C@]2(C)O[C@H]1[C@H]1O[C@@](C)(O)CCC[C@H]1C
> 50 µM

Please indicate TGI recorded for Cc1nc2ccc(Br)cc2c(=O)n1-c1nnc(C(C)(C)C)s1
> 10 µM

Tell me TGI reported for CN(/N=C/c1ccc(C(=O)O)cc1)C1=NCCCCN1
> 100 µM

Return value of TGI for input O=C1OC(CCCN2CCCCC2)(c2ccccc2)CC12CCCC2 (configuration not stated) , no commentary.
> 100 µM

Return TGI (reported value) for this molecule: Nc1cc([N+](=O)[O-])ccc1C(=O)N1CCC[C@H]1CO
> 100 µM

Answer with reported TGI of O=C(/C=C/c1ccccc1)Nc1ncc(Cc2ccccc2Cl)s1
> 100 µM

###

Measured TGI values are reported for all entries that follow.
Test system: HCT-116 colon
experiment summary: NCI tumour cell line growth inhibition, 48 h

Previously resolved entries follow.
compound	TGI
COc1cc2c(cc1OCCCCCCCCCCN1C(=O)c3cccc4cccc(c34)C1=O)N=C[C@@H]1CCCN1C2=O	> 100 µM
COCCOC(=O)C1=C(O)c2ccccc2S(=O)(=O)N1C	> 100 µM
Cc1ccc(S(=O)(=O)OC2CC=CC2)cc1	> 100 µM
Cc1ccc(-n2[nH]nc(C(N)=O)c2=O)cc1	> 100 µM

Tell me TGI reported for COc1ccc(-c2c(C(C)=O)c(-c3ccccc3)n(C3OC(CO)C(O)C(O)C3O)c(=S)c2C#N)cc1 (configuration not stated)
> 100 µM

Read off the recorded TGI for CC(C)C(O)(C(C)C)C(C)C
> 100 µM

Answer with the recorded TGI for the compound listed here: N[C@H](C(=O)O)[C@@H]1CC(Cl)=NO1
> 1000 µM

Specify TGI for O=C(O)CSCCc1ccccc1 and stop.
> 100 µM

For the compound O=C(/C=C/c1ccc(O)c(O)c1)OCC(OC(=O)/C=C/c1ccc(O)c(O)c1)C(=O)O (configuration not stated) , report TGI.
> 100 µM

Answer with reported TGI of CCOC(=O)[CH-]C(=O)C12CC3CC(CC(C3)C1)C2.CCOC(=O)[CH-]C(=O)C12CC3CC(CC(C3)C1)C2.CC[O-].CC[O-].[Ti+4]
> 100 µM

Report measured TGI; entry is CN(C)CCNC(=O)c1cccc2c(=O)c3ccccc3oc12
> 100 µM

Look up and state reported TGI for CC(C)(C)C1CCC(=O)/C(=C/CC2CC(=O)N(c3ccccc3)C(=O)C2)C1 (configuration not stated)
29.3 µM

Could you please provide reported TGI for CCOP(=Nc1ccc(N(C)C)cc1)(OCC)OCC ? Thanks!
> 100 µM

Identify TGI associated with the compound O=C1C=C(Nc2ccccc2C(=O)CC(=O)C(=O)Nc2cccc([N+](=O)[O-])c2)c2ccccc2C1=O
> 100 µM

Write down TGI measured for item CCN(CC)CCNC(Cc1ccccc1)c1ccc(OCc2ccccc2)cc1 (configuration not stated)
25.5 µM

Please list TGI recorded for the compound CCOC(=O)c1sc(=S)n(-c2ccc(Cl)cc2)c1-n1cc(-c2ccccc2)c(C#N)c1N
> 100 µM

Report TGI for N#CCC(=O)N/N=C1/C(=O)N(c2ccc(Cl)cc2)C(=O)C(=O)C1c1nc2ccccc2s1 (configuration not stated)
> 100 µM
